B1: Retinoic acid receptor beta, residues 85 to 161; numbered along this chain, P10826 (parent)
chain: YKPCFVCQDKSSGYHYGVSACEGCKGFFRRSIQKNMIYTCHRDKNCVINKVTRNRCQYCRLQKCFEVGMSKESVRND

Variants of: B1
Test: abundance fitness (aPCA) (normalised: wild type 0, dead -1); higher = more abundant; growth selection in yeast, the domain comes from the species named
Settings: Homo sapiens
Rule: abundance fitness under -0.3 gives Not fulfilled, otherwise Fulfilled.

Completed entries (count: 3):
# check: abundance fitness of V6P is greater than or equal to -0.3 Not fulfilled

Reported abundance fitness at or above -0.3? Y16F Fulfilled

Is abundance fitness for N45Q at or above -0.3? Fulfilled

Next:
abundance fitness >= -0.3 for Q8R ? Fulfilled

Threshold query (abundance fitness >= -0.3) on V47S Fulfilled

Entry source: the Human Domainome abundance scans (Beltran et al. 2025)
